Reference for the values: ChEMBL document CHEMBL5120742

Reported pIC50 values follow for various compounds
- Experimental Target: Histone deacetylase 4 (Homo sapiens)
- Assay Name: Inhibition of recombinant human N-terminal His6-SUMO-tagged C-terminal SII-tagged HDAC4 expressed in Escherichia coli (BL21) DE3 pLysS cells using BocLys(trifluoroacetyl)-AMC as substrate incubated for 30 mins by fluorescence assay
Units for pIC50: none; it is -log10 of a concentration expressed in mol/L.

Please review the entries below; each comes with its answer.
Compound: O=C1NC(=O)/C(=C\c2ccc(OCC(=O)N3N=C(c4ccc(F)cc4)CC3c3ccco3)cc2)S1 (stereo not drawn)
Observed Value: 6.06

Compound: O=C1NC(=O)/C(=C\c2ccc(OCC(=O)N3N=C(c4ccc(F)cc4)CC3c3ccc(Cl)c(Cl)c3)cc2)S1 (stereo not drawn)
Observed Value: 6.10

Proceed to the following item.
For record O=C1NC(=O)/C(=C\c2ccc(OCC(=O)N3N=C(c4ccc(F)cc4)CC3c3ccc(C(F)(F)F)cc3)cc2)S1 (stereo not drawn) the listed pIC50 is 5.89

----------
This listing pairs compounds with measured Activity.
- Experimental Target: Histone deacetylase 4 (Homo sapiens, UniProt P56524)
- Sequence (P56524 whole entry): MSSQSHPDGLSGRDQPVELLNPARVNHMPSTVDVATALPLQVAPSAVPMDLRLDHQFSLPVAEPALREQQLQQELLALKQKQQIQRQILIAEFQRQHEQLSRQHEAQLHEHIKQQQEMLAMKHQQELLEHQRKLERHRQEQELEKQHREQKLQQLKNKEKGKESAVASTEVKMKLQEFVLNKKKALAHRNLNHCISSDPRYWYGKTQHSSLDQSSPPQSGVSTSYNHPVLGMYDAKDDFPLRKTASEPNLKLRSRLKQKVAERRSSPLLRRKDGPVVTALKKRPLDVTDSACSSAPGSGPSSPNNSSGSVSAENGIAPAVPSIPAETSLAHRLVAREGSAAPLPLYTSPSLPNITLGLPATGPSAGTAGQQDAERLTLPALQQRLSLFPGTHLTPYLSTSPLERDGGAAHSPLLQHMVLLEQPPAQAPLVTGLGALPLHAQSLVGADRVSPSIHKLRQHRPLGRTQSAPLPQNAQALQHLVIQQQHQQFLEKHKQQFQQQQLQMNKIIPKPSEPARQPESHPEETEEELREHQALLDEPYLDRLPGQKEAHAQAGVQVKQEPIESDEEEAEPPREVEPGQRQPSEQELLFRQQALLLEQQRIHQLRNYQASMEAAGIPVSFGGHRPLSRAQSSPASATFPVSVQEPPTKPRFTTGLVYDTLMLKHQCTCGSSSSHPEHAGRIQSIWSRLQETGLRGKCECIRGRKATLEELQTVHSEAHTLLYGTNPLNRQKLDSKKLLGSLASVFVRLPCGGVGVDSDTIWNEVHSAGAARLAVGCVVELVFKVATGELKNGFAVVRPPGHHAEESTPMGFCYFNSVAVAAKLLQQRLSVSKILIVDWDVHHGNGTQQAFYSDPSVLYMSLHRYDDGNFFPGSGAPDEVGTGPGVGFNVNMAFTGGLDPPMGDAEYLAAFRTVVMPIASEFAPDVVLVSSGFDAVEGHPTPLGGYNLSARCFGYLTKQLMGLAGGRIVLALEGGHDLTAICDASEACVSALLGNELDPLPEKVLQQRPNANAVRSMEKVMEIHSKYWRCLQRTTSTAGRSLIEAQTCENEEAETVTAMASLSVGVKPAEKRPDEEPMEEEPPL
- Assay Name: Inhibition of recombinant human N-terminal His6-SUMO-tagged C-terminal SII-tagged HDAC4 expressed in Escherichia coli (BL21) DE3 pLysS cells assessed as residual activity at 50 uM using BocLys(trifluoroacetyl)-AMC as substrate incubated for 30 mins by fluorescence assay relative to control
Numbers only; they are read as %.

Solved entries (count: 4):
Compound: O=C1NC(=O)/C(=C\c2ccc(OCC(=O)N3N=C(c4ccc(F)cc4)CC3c3ccccc3Cl)cc2)S1 (stereo not given)
Value Units: %
Activity: 3.3

Compound: O=C1NC(=O)/C(=C\c2ccc(OCC(=O)N3N=C(c4ccc(F)cc4)CC3c3ccc(Cl)c(Cl)c3)cc2)S1 (stereo not given)
Value Units: %
Activity: 13

Compound: Cc1ccc(C2CC(c3ccc(F)cc3)=NN2C(=O)COc2ccc(/C=C3/SC(=O)NC3=O)cc2)cc1 (stereo not given)
Value Units: %
Activity: 10

Compound: O=C1NC(=O)/C(=C\c2ccc(OCC(=O)N3N=C(c4ccc(F)cc4)CC3c3ccc(F)cc3)cc2)S1 (stereo not given)
Value Units: %
Activity: 3.3

Field Activity (entry O=C1NC(=O)/C(=C\c2ccc(OCC(=O)N3N=C(c4ccccc4)CC3c3ccc(C(F)(F)F)cc3)cc2)S1 (stereo not given) ) reads 12
